# Measurement Protocol: MTT cytotoxicity assay
# Assay type: cell-based, human
# Condition Context: human, HEK293T cells, HEK293T, 100 µM; read-out: OD450, cytotoxicity (Fig 2a), replicates
Residues, ends and D or L forms follow the SMILES beside them.
Measured Property: viability at 72 h, 100 µM

Ask: Return reported viability at 72 h, 100 µM. Input molecule: CC[C@H](C)[C@H](NC(=O)[C@H](CCCNC(=N)N)NC(=O)[C@H](CO)NC(=O)[C@H](CC(C)C)NC(=O)[C@H](Cc1ccccc1)NC(=O)[C@H](Cc1ccccc1)NC(=O)[C@@H](N)Cc1ccccc1)C(=O)N[C@@H](Cc1ccccc1)C(N)=O [SHf] (H-FFFLSRIF-NH2; N-terminus assumed)
Reply: 27.1%

* * *

# Measurement Protocol: MTT cytotoxicity assay
# Assay type: cell-based, human
# Condition Context: human, HEK293T cells, OD450, cytotoxicity (Fig 2a), replicates
Non-standard residues stand in square brackets, D forms with d. Residues, ends and D or L forms follow the SMILES beside them.
Kindly state viability at 72 h, 3.13 µM for each of the entries shown.
Give bare numbers, in %.

The examples below pair each entry with its known result.
Compound	viability at 72 h, 3.13 µM, %
CC[C@H](C)[C@H](NC(=O)[C@H](CCCNC(=N)N)NC(=O)[C@H](CCCNC(=N)N)NC(=O)[C@H](CC(C)C)NC(=O)[C@H](Cc1ccccc1)NC(=O)[C@@H](N)CCCNC(=N)N)C(=O)N[C@@H](Cc1ccccc1)C(=O)N[C@@H](CCCNC(=N)N)C(=O)N[C@@H](Cc1ccccc1)C(=O)N[C@@H](Cc1ccccc1)C(=O)N[C@@H](Cc1ccccc1)C(N)=O [HT4] (H-RFLRRIFRFFF-NH2)	34.7
CC[C@@H](C)[C@@H](NC(=O)[C@@H](Cc1ccccc1)NC(=O)[C@@H](Cc1ccccc1)NC(=O)[C@@H](Cc1ccccc1)NC(=O)[C@H](N)Cc1ccccc1)C(=O)N[C@H](CCCNC(=N)N)C(=O)N[C@H](CCCNC(=N)N)C(=O)N[C@H](CC(C)C)C(=O)N[C@H](Cc1ccccc1)C(=O)N[C@H](CCCNC(=N)N)C(N)=O [RI-HT2] (H-[dF][dF][dF][dF][dI][dR][dR][dL][dF][dR]-NH2; N-terminus assumed)	93
CC[C@H](C)[C@H](NC(=O)[C@H](CCCNC(=N)N)NC(=O)[C@H](CCCNC(=N)N)NC(=O)[C@H](CC(C)C)NC(=O)[C@H](Cc1ccccc1)NC(=O)[C@H](CCCNC(=N)N)NC(=O)[C@@H](N)CCCNC(=N)N)C(=O)N[C@@H](Cc1ccccc1)C(=O)N[C@@H](Cc1ccccc1)C(=O)N[C@@H](Cc1ccccc1)C(=O)N[C@@H](Cc1ccccc1)C(N)=O [HT3] (H-RRFLRRIFFFF-NH2; N-terminus assumed)	97.8
CC[C@H](C)[C@H](NC(=O)[C@H](CCCNC(=N)N)NC(=O)[C@H](CCCNC(=N)N)NC(=O)[C@H](CC(C)C)NC(=O)[C@H](Cc1ccccc1)NC(=O)[C@H](Cc1ccccc1)NC(=O)[C@H](Cc1ccccc1)NC(=O)[C@@H](N)Cc1ccccc1)C(=O)N[C@@H](Cc1ccccc1)C(=O)N[C@@H](CCCNC(=N)N)C(N)=O [F-SHf(R^5)-R] (H-FFFFLRRIFR-NH2; N-terminus assumed)	9.86

Ask: Complete the entry with viability at 72 h, 3.13 µM for CC[C@H](C)[C@H](NC(=O)[C@H](CCCNC(=N)N)NC(=O)[C@H](CCCNC(=N)N)NC(=O)[C@H](CC(C)C)NC(=O)[C@H](Cc1ccccc1)NC(=O)[C@@H](N)CCCNC(=N)N)C(=O)N[C@@H](Cc1ccccc1)C(=O)N[C@@H](CCCCN)C(=O)N[C@@H](Cc1ccccc1)C(=O)N[C@@H](Cc1ccccc1)C(=O)N[C@@H](Cc1ccccc1)C(N)=O [HT5] (H-RFLRRIFKFFF-NH2)
Reply: 21
